# SYSTEM_NAME: native mouse MET on living mouse cells (mouse, UniProt P16056 25-1379)
# METHOD: cell-based or functional assay
Hi there, I'd appreciate the recorded protection from staurosporine, viability EC50, MLP29 for every entry that follows.

**Q:** Which protection from staurosporine, viability EC50, MLP29 reading was recorded for the binder chimeric llama-human IgG1 mAb 71D4 (antibody, V domains shown) VH: ELQLVESGGGLVQPGGSLRLSCAASGFTFSGYGMSWVRQAPGKGLEWVSDINSGGGSTSYADSVKGRFTISRDNAKNTLYLQMNSLKPEDTAVYYCAKDMRLYLARYNDYEAWDYWGQGTQVTVSS VL: SSALTQPSALSVTLGQTAKITCQGGSLGSSYAHWYQQKPGQAPVLVIYDDDSRPSGIPERFSGSSSGGTATLTISGAQAEDEGDYYCQSADSSGNAAVFGGGTHLTVL ?
**A:** 29.8 nM

**Q:** Can you handle chimeric llama-human IgG1 mAb 72F8 (antibody, V domains shown) VH: ELQLVESGGGLVQPGGSLRLSCAASGFTFSNYVMSWVRQAPGKGLEWVSDTNSGGSTSYADSVKGRFTISRDNAKNTLYLQMNSLKPEDTALYYCARSFFYGMNYWGKGTQVTVSS VL: QSALTQPPSLSASPGSSVRLTCTLSSGNNIGSYDISWYQQKAGSPPRYLLNYYTDSRKHQDSGVPSRFSGSKDASANAGLLLISGLQPEDEADYYCSAYKSGSYRWVFGGGTHVTVL next?
**A:** > 32 nM

**Q:** Can you handle chimeric llama-human IgG1 mAb 71A3 (antibody, V domains shown) VH: EVQLVESGGGLVQPGGSLRLSCAASGFSFKDYDITWVRQAPGKGLEWVSTITSRSGSTSYVDSVKGRFTISGDNAKNTLYLQMNSLKPEDTAVYYCAKVYATTWDVGPLGYGMDYWGKGTLVTVSS VL: SYELTQPSALSVTLGQTAKITCQGGSLGSSYAHWYQQKPGQAPVLVIYDDDSRPSGIPERFSGSSSGGTATLTISGAQAEDEGDYYCQSADSSGNAAVFGGGTHLTVL next?
**A:** < 0.5 nM

**Q:** Can you handle chimeric llama-human IgG1 mAb 71G12 (antibody, V domains shown) VH: QVQLQESGGDLVQPGGSLRVSCVVSGFTFSRYYMSWVRQAPGKGLEWVSSIDSYGYSTYYTDSVKGRFTISRDNAKNTLYLQMNSLKPEDTALYYCARAKTTWSYDYWGQGTQVTVSS VL: EIVLTQSPSSVTASVGGKVTINCKSSQSVFIASNQKTYLNWYQQRPGQSPRLVISYASTRESGIPDRFSGSGSTTDFTLTISSVQPEDAAVYYCQQAYSHPTFGQGTKVELK next?
**A:** > 32 nM

**Q:** Can you handle chimeric llama-human IgG1 mAb 74C8 (antibody, V domains shown) VH: EVQLVESGGGLVQPGGSLRLSCAASGFTFRNYHMSWVRQVPGKGFEWISDINSAGGSTYYADSVKGRFTISRDNAKNTLYLEMNSLKPEDTALYYCARVNVWGVNYWGKGTLVSVSS VL: QTVVTQEPSLSVSPGGTVTLTCGLSSGSVTTSNYPGWFQQTPGQAPRTLIYNTNSRHSGVPSRFSGSISGNKAALTITGAQPEDEADYYCSLYPGSYTNVFGGGTHLTVL next?
**A:** > 32 nM

**Q:** Can you handle chimeric llama-human IgG1 mAb 71G2 (antibody, V domains shown) VH: EVQLQESGGGLVQPGGSLRLSCAASGFTFSIYDMSWVRQAPGKGLEWVSTINSDGSSTSYVDSVKGRFTISRDNAKNTLYLQMNSLKPEDTAVYYCAKVYGSTWDVGPMGYGMDYWGKGTLVTVSS VL: SSALTQPSALSVSLGQTARITCQGGSLGSSYAHWYQQKPGQAPVLVIYGDDSRPSGIPERFSGSSSGGTATLTISGAQAEDEDDYYCQSTDSSGNTVFGGGTRLTVL next?
**A:** 1.99 nM
